# TARGET_ENTITY: PRMT1 (Homo sapiens, UniProt Q99873)
# Construct: residues 2-371, N-terminal GST fusion, E. coli
# Sequence (Q99873 2-353 isoform Q99873-3): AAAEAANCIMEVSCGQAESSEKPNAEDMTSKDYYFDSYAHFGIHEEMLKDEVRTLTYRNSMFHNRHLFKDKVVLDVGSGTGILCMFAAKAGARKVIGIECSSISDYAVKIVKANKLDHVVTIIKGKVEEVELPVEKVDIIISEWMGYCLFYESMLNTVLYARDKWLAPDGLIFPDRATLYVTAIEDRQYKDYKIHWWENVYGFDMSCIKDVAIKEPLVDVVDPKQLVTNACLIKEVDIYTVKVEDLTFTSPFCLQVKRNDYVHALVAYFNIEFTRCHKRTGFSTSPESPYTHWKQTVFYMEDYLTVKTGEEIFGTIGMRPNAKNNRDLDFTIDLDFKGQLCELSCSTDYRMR
# TEST_METHOD_NOTES: HotSpot [3H]SAM filter-binding methyltransferase assay
# Assay type: biochemical
# ASSAY_CONDITIONS: histone H4, […] SAM, pH […] MgCl2, […] DTT, […] °C, single experiment
MEASURED_QUANTITY: IC50 (µM)
Entry rule: numbers only, all in µM.

Find the recorded IC50 belonging to COc1cccc(-n2nc(C(=O)O)cc2-c2ccc(C3CCCCC3)c(Cl)c2)c1 [TC LPA5 4] and report it. 68

----------
# TARGET_ENTITY: EZH2 Complex (Homo sapiens, UniProt Q15910, Y641F)
# Construct: five-member complex, Flag-EED, other subunits His-tagged, insect cells; with Zinc finger protein AEBP2; Polycomb protein EED; Polycomb protein SUZ12
# Sequence (Q15910 2-746 Y641F): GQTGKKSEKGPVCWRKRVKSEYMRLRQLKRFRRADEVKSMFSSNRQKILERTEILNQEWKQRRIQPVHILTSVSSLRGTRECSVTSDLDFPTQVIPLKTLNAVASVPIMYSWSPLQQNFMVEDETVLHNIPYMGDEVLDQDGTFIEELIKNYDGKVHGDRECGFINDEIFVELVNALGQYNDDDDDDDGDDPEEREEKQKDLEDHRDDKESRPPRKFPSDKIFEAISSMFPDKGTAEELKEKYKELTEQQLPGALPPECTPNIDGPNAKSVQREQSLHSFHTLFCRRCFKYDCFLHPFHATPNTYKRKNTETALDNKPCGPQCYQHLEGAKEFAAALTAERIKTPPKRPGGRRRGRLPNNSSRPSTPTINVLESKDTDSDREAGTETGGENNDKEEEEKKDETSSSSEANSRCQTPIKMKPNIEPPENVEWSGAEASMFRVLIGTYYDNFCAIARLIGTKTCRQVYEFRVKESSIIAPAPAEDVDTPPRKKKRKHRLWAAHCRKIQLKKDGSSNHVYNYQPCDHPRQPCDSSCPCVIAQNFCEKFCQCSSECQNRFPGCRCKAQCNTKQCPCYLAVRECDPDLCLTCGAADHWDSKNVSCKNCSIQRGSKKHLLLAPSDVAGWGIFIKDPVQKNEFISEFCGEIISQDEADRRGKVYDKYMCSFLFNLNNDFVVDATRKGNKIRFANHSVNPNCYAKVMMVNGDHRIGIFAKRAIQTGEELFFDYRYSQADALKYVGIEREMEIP
# Sequence (O75530 2-441 partner): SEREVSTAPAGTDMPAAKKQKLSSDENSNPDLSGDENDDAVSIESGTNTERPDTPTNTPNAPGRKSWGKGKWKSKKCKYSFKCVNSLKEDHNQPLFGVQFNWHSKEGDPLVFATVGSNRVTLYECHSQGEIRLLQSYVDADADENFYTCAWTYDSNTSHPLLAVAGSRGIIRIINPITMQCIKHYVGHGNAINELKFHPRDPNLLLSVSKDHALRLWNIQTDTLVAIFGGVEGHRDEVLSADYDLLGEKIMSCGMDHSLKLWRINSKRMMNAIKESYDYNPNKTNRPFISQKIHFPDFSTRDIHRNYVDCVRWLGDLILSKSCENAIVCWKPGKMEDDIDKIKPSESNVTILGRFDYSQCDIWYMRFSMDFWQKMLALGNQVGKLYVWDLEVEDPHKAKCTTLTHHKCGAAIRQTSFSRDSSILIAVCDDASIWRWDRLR
# Sequence (Q15022 2-739 partner): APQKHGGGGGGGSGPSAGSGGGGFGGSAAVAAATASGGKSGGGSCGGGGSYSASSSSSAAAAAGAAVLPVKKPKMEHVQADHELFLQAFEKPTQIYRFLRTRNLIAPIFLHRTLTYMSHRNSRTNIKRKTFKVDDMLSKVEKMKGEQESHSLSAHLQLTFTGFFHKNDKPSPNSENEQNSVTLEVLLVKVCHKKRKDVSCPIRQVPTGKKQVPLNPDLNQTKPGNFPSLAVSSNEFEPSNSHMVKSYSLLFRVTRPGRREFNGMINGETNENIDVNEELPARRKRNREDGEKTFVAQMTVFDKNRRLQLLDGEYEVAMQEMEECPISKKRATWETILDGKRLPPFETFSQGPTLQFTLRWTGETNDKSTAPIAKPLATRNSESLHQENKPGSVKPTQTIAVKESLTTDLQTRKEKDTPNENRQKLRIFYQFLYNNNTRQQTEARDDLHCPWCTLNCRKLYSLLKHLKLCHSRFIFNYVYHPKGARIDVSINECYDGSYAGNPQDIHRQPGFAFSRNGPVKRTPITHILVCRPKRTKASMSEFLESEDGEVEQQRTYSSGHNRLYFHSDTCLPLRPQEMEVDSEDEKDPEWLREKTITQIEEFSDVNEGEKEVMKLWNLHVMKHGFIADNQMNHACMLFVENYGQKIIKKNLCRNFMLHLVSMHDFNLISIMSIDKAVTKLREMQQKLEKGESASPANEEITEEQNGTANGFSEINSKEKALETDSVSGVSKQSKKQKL
# Sequence (Q09028 2-425 partner): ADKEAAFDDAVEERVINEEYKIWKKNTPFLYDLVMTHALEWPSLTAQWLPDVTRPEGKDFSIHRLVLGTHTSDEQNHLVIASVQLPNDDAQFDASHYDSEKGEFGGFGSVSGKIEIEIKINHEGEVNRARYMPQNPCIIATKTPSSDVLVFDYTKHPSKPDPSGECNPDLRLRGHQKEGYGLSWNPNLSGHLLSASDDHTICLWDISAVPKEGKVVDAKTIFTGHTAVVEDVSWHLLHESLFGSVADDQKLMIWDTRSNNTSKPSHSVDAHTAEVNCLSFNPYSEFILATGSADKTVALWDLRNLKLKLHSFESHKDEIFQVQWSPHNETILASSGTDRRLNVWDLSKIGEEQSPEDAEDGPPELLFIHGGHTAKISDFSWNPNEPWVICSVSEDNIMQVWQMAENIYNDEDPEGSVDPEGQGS
# Sequence (Q6ZN18 2-517 partner): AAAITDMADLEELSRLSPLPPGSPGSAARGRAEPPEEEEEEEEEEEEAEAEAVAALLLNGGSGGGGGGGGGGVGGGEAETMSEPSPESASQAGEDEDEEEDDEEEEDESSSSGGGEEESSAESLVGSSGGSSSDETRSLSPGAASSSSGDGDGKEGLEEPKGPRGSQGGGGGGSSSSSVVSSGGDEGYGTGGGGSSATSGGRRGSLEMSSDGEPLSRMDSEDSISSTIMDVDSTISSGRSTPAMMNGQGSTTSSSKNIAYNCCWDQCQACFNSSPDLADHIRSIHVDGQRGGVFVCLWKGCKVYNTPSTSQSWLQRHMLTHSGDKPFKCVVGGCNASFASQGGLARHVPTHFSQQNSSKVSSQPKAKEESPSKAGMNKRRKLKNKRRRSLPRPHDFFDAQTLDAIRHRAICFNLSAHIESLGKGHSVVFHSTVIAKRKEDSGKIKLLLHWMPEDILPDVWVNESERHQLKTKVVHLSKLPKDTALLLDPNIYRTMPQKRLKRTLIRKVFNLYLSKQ
# TEST_METHOD_NOTES: HotSpot [3H]SAM filter-binding methyltransferase assay
# Assay type: biochemical
Documented IC50 across a set of molecules
Lab book: enter the figure in µM, no units written.

| MOLECULE | UNITS_LABEL | IC50 |
| --- | --- | --- |
| O=C1C(Cl)=C(NCCN2CCOCC2)C(=O)c2ncccc21 [DA3003-1] | µM | 0.68 |

Missing value: IC50, EZH2 Complex (Homo sapiens, UniProt Q15910, Y641F), entry CC1(C)CCC(CN2CCN(c3ccc(C(=O)NS(=O)(=O)c4ccc(NCC5CCOCC5)c([N+](=O)[O-])c4)c(Oc4cnc5[nH]ccc5c4)c3)CC2)=C(c2ccc(Cl)cc2)C1 [ABT-199] . Fill in? 21

----------
# TARGET_ENTITY: SET8 (Homo sapiens)
# Construct: gene KMT5A
# Sequence (Q9NQR1 whole entry): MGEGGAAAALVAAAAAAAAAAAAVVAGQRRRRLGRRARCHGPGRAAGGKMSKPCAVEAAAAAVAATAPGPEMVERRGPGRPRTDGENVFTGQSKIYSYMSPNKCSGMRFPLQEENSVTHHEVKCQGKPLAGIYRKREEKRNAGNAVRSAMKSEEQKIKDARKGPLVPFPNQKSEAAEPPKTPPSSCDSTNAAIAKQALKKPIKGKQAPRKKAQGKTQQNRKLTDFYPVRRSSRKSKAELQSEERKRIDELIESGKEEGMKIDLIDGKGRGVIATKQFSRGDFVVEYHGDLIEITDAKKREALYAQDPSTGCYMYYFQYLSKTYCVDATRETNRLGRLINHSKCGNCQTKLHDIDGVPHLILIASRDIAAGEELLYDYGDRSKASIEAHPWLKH
# TEST_METHOD_NOTES: biochemical
MEASURED_QUANTITY: IC50 (µM)
Use µM as the unit, but write only the number.

I would be grateful if you could share the reported IC50 for Cc1ccc(NC2=CC(=O)c3sc(C)nc3C2=O)cc1 [Ryuvidine] . 0.95

----------
# TARGET_ENTITY: DOT1L (Homo sapiens, UniProt Q8TEK3)
# Construct: residues 1-416, N-terminal GST fusion, E. coli
# Sequence (Q8TEK3 1-416): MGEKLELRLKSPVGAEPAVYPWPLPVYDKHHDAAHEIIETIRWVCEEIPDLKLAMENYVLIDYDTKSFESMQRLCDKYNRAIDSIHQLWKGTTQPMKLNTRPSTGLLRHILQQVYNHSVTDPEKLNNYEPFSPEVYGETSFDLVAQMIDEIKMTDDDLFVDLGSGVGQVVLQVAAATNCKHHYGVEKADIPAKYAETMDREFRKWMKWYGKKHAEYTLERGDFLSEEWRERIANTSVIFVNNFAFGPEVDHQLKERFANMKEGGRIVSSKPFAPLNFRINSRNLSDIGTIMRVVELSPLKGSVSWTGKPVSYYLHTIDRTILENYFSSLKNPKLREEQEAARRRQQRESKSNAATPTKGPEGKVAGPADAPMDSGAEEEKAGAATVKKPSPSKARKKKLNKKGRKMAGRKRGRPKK
# TEST_METHOD_NOTES: HotSpot [3H]SAM filter-binding methyltransferase assay
# Type: biochemical
# ASSAY_CONDITIONS: nucleosomes, […] SAM, pH […] MgCl2, […] DTT, […] °C, single experiment
MEASURED_QUANTITY: pIC50
Convention used: pIC50 is expressed as -log10 of the molar concentration.

Fill in: pIC50 of `COc1cccc(-n2nc(C(=O)O)cc2-c2ccc(C3CCCCC3)c(Cl)c2)c1` is ___ 5.09

----------
# TARGET_ENTITY: DNMT3a (Homo sapiens)
# Sequence (Q9Y6K1 whole entry, looked up): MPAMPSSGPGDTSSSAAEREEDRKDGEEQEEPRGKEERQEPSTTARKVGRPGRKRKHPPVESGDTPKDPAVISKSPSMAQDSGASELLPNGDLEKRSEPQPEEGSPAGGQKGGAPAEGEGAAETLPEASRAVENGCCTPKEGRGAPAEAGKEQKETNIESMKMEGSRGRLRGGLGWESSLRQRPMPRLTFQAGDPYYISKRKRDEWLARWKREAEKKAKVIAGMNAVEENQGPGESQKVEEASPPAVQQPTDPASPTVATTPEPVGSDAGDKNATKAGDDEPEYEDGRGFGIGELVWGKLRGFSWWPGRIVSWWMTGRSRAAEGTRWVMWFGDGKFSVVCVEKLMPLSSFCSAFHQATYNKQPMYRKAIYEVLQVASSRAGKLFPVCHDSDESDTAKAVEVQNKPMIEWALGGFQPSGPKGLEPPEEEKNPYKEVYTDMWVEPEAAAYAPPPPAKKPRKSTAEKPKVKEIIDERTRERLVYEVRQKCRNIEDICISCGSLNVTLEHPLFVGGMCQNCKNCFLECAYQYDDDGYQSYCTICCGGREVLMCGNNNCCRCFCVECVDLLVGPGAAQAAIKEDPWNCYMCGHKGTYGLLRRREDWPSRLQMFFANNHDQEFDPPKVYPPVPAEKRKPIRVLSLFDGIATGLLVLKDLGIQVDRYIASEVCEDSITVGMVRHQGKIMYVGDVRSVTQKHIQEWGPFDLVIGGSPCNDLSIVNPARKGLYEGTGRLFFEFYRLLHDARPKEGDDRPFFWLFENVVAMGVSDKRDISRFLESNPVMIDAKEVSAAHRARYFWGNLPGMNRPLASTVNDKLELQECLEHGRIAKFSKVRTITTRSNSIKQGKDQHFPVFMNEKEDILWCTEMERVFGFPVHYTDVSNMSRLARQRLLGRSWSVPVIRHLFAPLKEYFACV
# TEST_METHOD_NOTES: biochemical
# ASSAY_CONDITIONS: read-out: DA3003-1 IC50; inhibitor
MEASURED_QUANTITY: IC50 (µM)
Please state the figure in µM; there is no need to write the unit.

Record `O=C1C(Cl)=C(NCCN2CCOCC2)C(=O)c2ncccc21` : what is its IC50 with DNMT3a (Homo sapiens)? 1.1

----------
# TARGET_ENTITY: DNMT3b (Homo sapiens, UniProt Q9UBC3)
# Construct: residues 2-853, N-terminal GST fusion, insect cell/baculovirus
# TEST_METHOD_NOTES: HotSpot [3H]SAM filter-binding methyltransferase assay
# Assay type: biochemical
# ASSAY_CONDITIONS: lambda DNA, […] SAM, pH […] EDTA, […] DTT, […] °C, single experiment
MEASURED_QUANTITY: pIC50
The quantity pIC50 is defined as the negative base-10 logarithm of the molar concentration.

Need pIC50 of `COc1cccc(-n2nc(C(=O)O)cc2-c2ccc(C3CCCCC3)c(Cl)c2)c1` , thanks. 4.62
